Molecular target: T1, interleukin-23 receptor (IL-23R), Q5VWK5
T1 chain: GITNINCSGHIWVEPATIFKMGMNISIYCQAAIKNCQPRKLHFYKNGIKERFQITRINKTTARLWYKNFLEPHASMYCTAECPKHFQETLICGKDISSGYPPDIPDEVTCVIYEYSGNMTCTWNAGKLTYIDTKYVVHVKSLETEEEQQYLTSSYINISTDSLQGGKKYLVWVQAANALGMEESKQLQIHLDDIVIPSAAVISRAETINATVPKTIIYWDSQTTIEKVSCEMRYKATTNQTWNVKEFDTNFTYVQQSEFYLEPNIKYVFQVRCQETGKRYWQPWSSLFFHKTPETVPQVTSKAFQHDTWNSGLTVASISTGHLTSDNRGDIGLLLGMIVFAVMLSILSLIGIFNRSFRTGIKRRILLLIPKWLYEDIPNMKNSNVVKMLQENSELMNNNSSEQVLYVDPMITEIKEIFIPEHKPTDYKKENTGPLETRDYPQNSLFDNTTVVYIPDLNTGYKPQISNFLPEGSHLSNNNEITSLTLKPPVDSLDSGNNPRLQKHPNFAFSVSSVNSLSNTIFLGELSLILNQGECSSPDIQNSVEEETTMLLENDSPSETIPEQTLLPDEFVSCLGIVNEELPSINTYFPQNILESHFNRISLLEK
Experiment: cell-based or functional assay
Starred links: 1 amine or outer side, 2 acyl side, 3 side chain; linkers in the order of their positions; H or OH if unused. Positions of bridges follow the written chain, without caps; N, C: chain ends. Non-standard residues stand in square brackets, D forms with d. No end group written: not given here. X5 = 2‑amino‑3‑(3-carbamoyl-1H-pyrazol-4-yl)propanoic acid, NC(=O)c1n[nH]cc1CC(N[*:1])C(=O)[*:2]; Trp(7-Me) = Cc1cccc2c(C[C@H](N)C(=O)O)c[nH]c12; Pen = CC(C)(S)[C@H](N)C(=O)O; Thp = NC1(C(=O)O)CCOCC1; Sar = CNCC(=O)O

{"binder": "R[Pen]NT[Trp(7-Me)]K(Ac)[Pen][2‑amino‑3‑(4-(2-aminoethoxy)phenyl)propanoic acid][2‑amino‑3‑(6-hydroxynaphthalen-2-yl)propanoic acid][Thp]EN[X5][Sar] (disulfide 2-7 (inferred); ends not checked) [SEQ ID NO: 440]", "PBMC pSTAT3 IC50": "> 1 nM"}
{"binder": "R[Pen]NT[Trp(7-Me)]K(Ac)[Pen][2‑amino‑3‑(4-(2-aminoethoxy)phenyl)propanoic acid][2‑amino‑3‑(5-bromonaphthalen-2-yl)propanoic acid][Thp]EN[Thp] (disulfide 2-7 (inferred); ends not checked) [SEQ ID NO: 443]", "PBMC pSTAT3 IC50": "> 1 nM"}

Data origin, for the record: patent US20240279281A1
